measurement.target: Mouse ACVR2A (mouse, UniProt P27038 20-135, limits assumed); also: test concentration or dose not given here
Sequence (P27038 20-135 limits assumed): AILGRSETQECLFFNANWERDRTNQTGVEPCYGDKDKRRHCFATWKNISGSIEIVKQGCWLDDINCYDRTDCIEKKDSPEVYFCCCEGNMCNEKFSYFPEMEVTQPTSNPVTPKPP
assay.comment: ELISA
value.kind: optical density (OD)
Please state the figure in OD; there is no need to write the unit.

Known optical density results, listed for orientation:
370_G08 (antibody, V domains shown, VH/VL only) VH: EVQLLESGGGLVQPGGSLRLSCAASGFTFSDYSMNWVRQAPGKGLEWVAGINYNGGYTGYADSVKGRFTISRDNSKNTLYLQMNSLRAEDTAVYYCARGATWHDTHLDYWGQGTLVTVSS VL: DIQMTQSPSSLSASVGDRVTITCRASQSILTYLNWYQQKPGKAPKLVIYAATSRASGVPSRFSGSGSGTDFTLTISSLQPEDFATYYCQQSYESPLTFGGGTKVEIK: 3.33
366_G05 (antibody, V domains shown, VH/VL only) VH: EVQLLESGGGLVQPGGSLRLSCAASGFTFDSYGMNWVRQAPGKGLEWVSNINYNGGYTSYADSVKGRFTISRDNSKNTLYLQMNSLRAEDTAVYYCARSANWHDTALDYWGQGTLVTVSS VL: DIQMTQSPSSLSASVGDRVTITCRASQSIISYVNWYQQKPGKAPKLVIYAATSRASGVPSRFSGSGSGTDFTLTISSLQPEDFATYYCQQSYENPLTFGGGTKVEIK: 2.5

Could you now look at the following binder, please?
(Q) Quick check: optical density of 366_B10 (antibody, V domains shown, VH/VL only) VH: EVQLLESGGGLVQPGGSLRLSCAASGFTFSSYGMNWVRQAPGKGLEWVSGINYNSGYTSYADSVKGRFTISRDNSKNTLYLQMNSLRAEDTAVYYCARSANWHDTALDYWGQGTLVTVSS VL: DIQMTQSPSSLSASVGDRVTITCRASQSIISYLNWYQQKPGKAPKLLIYAATSRASGVPSRFSGSGSGTDFTLTISSLQPEDFATYYCQQSYDNPLTFGGGTKVEIK ?
(A) 2.44
